tested on: Candida tropicalis; assay: Antifungal activity against Candida tropicalis 156 after 48 hrs by microdilution broth assay; type: functional; conditions: Candida tropicalis, 156, 48 h
Recorded MIC80, one value per entry.

stdin: Sample O=C(CN1C(=O)CSC1=S)Oc1ccc([N+](=O)[O-])cc1 — what was its MIC80?
stdout: > 500 µM

stdin: Would you mind doing CC(=O)Oc1ccccc1/C=C1\SC(=S)N(CC(=O)O)C1=O as well?
stdout: > 500 µM

stdin: Try this compound too: O=C(CN1C(=O)CSC1=S)Oc1ccc(Cl)cc1
stdout: > 500 µM

====

experiment: Solubility of the compound in Sula's semisynthetic medium up to 1 mM; format: physicochemical
readout: solubility

test_smiles=O=C(CN1C(=O)CSC1=S)Nc1ccc([N+](=O)[O-])cc1 readout=solubility test_result=Soluble
test_smiles=O=C(O)CN1C(=O)/C(=C/c2cccc(O)c2)SC1=S readout=solubility test_result=Soluble
test_smiles=O=C(CN1C(=O)CSC1=S)Nc1ccc(C(F)(F)F)cc1 readout=solubility test_result=Soluble
test_smiles=O=C(O)CN1C(=O)/C(=C/c2ccc(O)cc2)SC1=S readout=solubility test_result=Soluble
test_smiles=CC(=O)Oc1ccccc1/C=C1\SC(=S)N(CC(=O)O)C1=O readout=solubility test_result=Soluble

stdin: Returns the measured solubility for the input compound. Input: O=C(CN1C(=O)CSC1=S)Nc1ccc(Cl)cc1
stdout: Soluble

stdin: Note, next up: O=C(CN1C(=O)CSC1=S)Oc1ccccc1
stdout: Soluble

stdin: Try the compound O=C(O)CN1C(=O)/C(=C/c2cc(Br)ccc2O)SC1=S
stdout: Soluble

stdin: Same question, O=C(CN1C(=O)CSC1=S)Oc1ccc([N+](=O)[O-])cc1 this time
stdout: Soluble

stdin: Do the same for O=C(O)CN1C(=O)/C(=C/c2ccccc2O)SC1=S please
stdout: Soluble

Entry source: ChEMBL document CHEMBL3992547
